protocol_notes: LNP size and polydispersity index (PDI) by dynamic light scattering (DLS)
Format: physicochemical
reported_conditions: Table 5; LNP 60:0:38.5:1.5 mol %; hEPO mRNA; N:P 6
observed_property: Size (nm)

>>> measurement("CCCCCCCC(CCCCCCC)C(=O)OCCN(CCOC(=O)C(CCCCCCC)CCCCCCC)C(=O)C(C)N (centres unmarked)")
55.6
>>> measurement("CCCCCCCCC(CCCCCC)C(=O)OCCN(CCOC(=O)C(CCCCCC)CCCCCCCC)C(=O)CN (centres unmarked)")
146.3
>>> measurement("CCCCCCCC(CCCCCCC)C(=O)OCCN(CCOC(=O)C(CCCCCCC)CCCCCCC)C(=O)C(N)Cc1ccccc1 (centres unmarked)")
211.9
>>> measurement("CCCCCCCCC(CCCCCC)C(=O)OCCN(CCOC(=O)C(CCCCCC)CCCCCCCC)C(=O)CNCCO (centres unmarked)")
52.7
>>> measurement("CCCCCCCC(CCCCCCC)C(=O)OCCN(CCOC(=O)C(CCCCCCC)CCCCCCC)C(=O)CN")
236.6
